test target: hPARG (C-terminal His6-tag) (Homo sapiens (Human))
Sequence (Q86W56 whole entry): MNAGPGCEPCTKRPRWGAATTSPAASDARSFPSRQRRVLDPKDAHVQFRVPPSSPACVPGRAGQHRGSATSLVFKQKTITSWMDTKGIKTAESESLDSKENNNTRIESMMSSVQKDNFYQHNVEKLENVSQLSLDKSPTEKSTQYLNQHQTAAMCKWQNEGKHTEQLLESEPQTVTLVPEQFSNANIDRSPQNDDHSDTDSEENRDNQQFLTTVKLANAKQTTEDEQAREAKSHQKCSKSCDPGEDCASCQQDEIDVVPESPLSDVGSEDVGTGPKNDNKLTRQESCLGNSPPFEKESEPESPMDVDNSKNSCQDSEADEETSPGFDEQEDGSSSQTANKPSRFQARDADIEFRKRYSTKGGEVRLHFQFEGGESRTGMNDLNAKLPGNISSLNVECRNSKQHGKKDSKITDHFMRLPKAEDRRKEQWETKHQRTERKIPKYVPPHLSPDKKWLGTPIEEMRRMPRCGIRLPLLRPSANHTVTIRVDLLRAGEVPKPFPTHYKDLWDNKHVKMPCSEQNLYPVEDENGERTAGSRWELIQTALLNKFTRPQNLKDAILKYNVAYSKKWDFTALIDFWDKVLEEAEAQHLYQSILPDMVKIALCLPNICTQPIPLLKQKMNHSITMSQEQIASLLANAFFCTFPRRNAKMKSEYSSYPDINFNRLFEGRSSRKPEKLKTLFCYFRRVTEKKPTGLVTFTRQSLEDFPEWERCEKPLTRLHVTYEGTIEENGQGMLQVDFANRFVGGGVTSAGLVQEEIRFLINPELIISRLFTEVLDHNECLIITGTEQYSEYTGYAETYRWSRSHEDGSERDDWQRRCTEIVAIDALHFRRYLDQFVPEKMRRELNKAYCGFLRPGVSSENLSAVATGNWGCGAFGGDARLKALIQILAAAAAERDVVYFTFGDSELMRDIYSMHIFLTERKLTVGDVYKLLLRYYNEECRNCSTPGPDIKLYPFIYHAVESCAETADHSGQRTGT
Please respond with reported IC50 for every item in the list.

Below: 5 compounds and their reported IC50.
CN(C)C(=O)N1CCC(c2ncnc3c2c2cc(F)c(S(=O)(=O)NC4(C#N)CC4)cc2n3-c2nnc(C(F)F)s2)CC1	< 100 nM
CC1(NS(=O)(=O)c2ccc3c4c(N5CCN6CCOC[C@H]6C5)ncnc4n(-c4nnc(C(F)F)s4)c3c2)CC1	< 100 nM
CN(C)[C@H]1CCN(C(=O)N2CCC(c3ncnc4c3c3ccc(S(=O)(=O)NC5(C#N)CC5)cc3n4-c3nnc(C(F)F)s3)CC2)C1	< 100 nM
C[C@H]1CN(C(=O)N(C)C)CCN1c1ncnc2c1c1ccc(S(=O)(=O)NC3(C#N)CC3)cc1n2-c1nnc(C(F)F)s1	100 to 1000 nM
C[C@H]1CN(c2ncnc3c2c2ccc(S(=O)(=O)NC4(C#N)CC4)cc2n3-c2nnc(C(F)F)s2)CCN1CC1CC1	< 100 nM

State the recorded IC50 for this entry: N#CC1(NS(=O)(=O)c2ccc3c4c(N5CC6CC(C5)O6)ncnc4n(-c4nnc(C(F)F)s4)c3c2)CC1
< 100 nM

---

Tested on: Kuramochi cell line
assay comment: Cell Viability Assay (Cell Titer-Glo, 7 days)
Type: cell-based
condition info: 168 h, Kuramochi cells, 7 days incubation, read-out: PARG Cell viability (IC50)
measure: IC50

CC(C)N1CCN(c2ncnc3c2c2ccc(S(=O)(=O)NC4(C#N)CC4)cc2n3-c2nnc(C(F)F)s2)CC1=O	< 100 nM
CC1(O)CCN(c2ncnc3c2c2ccc(S(=O)(=O)NC4(C#N)CC4)cc2n3-c2nnc(C(F)F)s2)CC1	< 100 nM
CN1CCN(C(=O)N2CCN(c3ncnc4c3c3ccc(S(=O)(=O)NC5(C#N)CC5)cc3n4-c3nnc(C(F)F)s3)CC2)CC1	100 to 1000 nM
CC1(NS(=O)(=O)c2ccc3c4c(C5CCN(C(=O)N6CC[C@@H](O)C6)CC5)ncnc4n(-c4nnc(C(F)F)s4)c3c2)CC1	< 100 nM
CO[C@H](C)C(=O)N1CCC(c2ncnc3c2c2ccc(S(=O)(=O)NC4(C#N)CC4)cc2n3-c2nnc(C(F)F)s2)CC1	< 100 nM
CS(=O)(=O)N1CCC(c2ncnc3c2c2ccc(S(=O)(=O)NC4(C#N)CC4)cc2n3-c2nnc(C(F)F)s2)CC1	< 100 nM
C[C@@H]1CO[C@@H](C)CN1c1ncnc2c1c1ccc(S(=O)(=O)NC3(C#N)CC3)cc1n2-c1nnc(C(F)F)s1	< 100 nM
N#CC1(NS(=O)(=O)c2ccc3c4c(N5CCn6c(nnc6C(F)(F)F)C5)ncnc4n(-c4nnc(C(F)F)s4)c3c2)CC1	< 100 nM

Record IC50 for all entries; do not skip any.
1. CC(C)C(=O)N1CCN(c2ncnc3c2c2ccc(S(=O)(=O)NC4(C#N)CC4)cc2n3-c2nnc(C(F)F)s2)CC1
2. N#CC1(NS(=O)(=O)c2ccc3c4c(C5CCN(C(=O)[C@@H]6CCOC6)CC5)ncnc4n(-c4nnc(C(F)F)s4)c3c2)CC1
3. CN(C)[C@H]1CCN(C(=O)N2CCC(c3ncnc4c3c3ccc(S(=O)(=O)NC5(C#N)CC5)cc3n4-c3nnc(C(F)F)s3)CC2)C1

< 100 nM
< 100 nM
< 100 nM

Hi, could you look up IC50 for each item in my list?
1. N#CC1(NS(=O)(=O)c2ccc3c4c(N5CCN6C(=O)OC[C@H]6C5)ncnc4n(-c4nnc(C(F)F)s4)c3c2)CC1
2. Cc1ccc(C(=O)N2CCN(c3ncnc4c3c3ccc(S(=O)(=O)NC5(C#N)CC5)cc3n4-c3nnc(C(F)F)s3)CC2)nc1
3. CN(C)C(=O)N1CC2CN(c3ncnc4c3c3ccc(S(=O)(=O)NC5(C#N)CC5)cc3n4-c3nnc(C(F)F)s3)CC2C1 (centres unmarked)
4. C[C@H]1CN(c2ncnc3c2c2ccc(S(=O)(=O)NC4(C)CC4)cc2n3-c2nnc(C(F)F)s2)CCO1
5. CN(C)C(=O)N1CCC(c2ccnc3c2c2ccc(S(=O)(=O)NC4(C)CC4)cc2n3-c2nnc(C(F)F)s2)CC1
6. N#CC1(NS(=O)(=O)c2ccc3c4c(C5CCN(C(=O)N6CC(O)C6)CC5)ncnc4n(-c4nnc(C(F)F)s4)c3c2)CC1
7. CN1CCN(c2ccnc3c2c2ccc(S(=O)(=O)NC4(C#N)CC4)cc2n3-c2nnc(C(F)F)s2)CC1
8. N#CC1(NS(=O)(=O)c2ccc3c4c(N5CCN(C(=O)C6CC6)CC5)ncnc4n(-c4nnc(C(F)F)s4)c3c2)CC1

1: < 100 nM; 2: < 100 nM; 3: 100 to 1000 nM; 4: < 100 nM; 5: 100 to 1000 nM; 6: 100 to 1000 nM; 7: < 100 nM; 8: < 100 nM

// for each compound in input: emit IC50
1. N#CC1CCN(c2ncnc3c2c2ccc(S(=O)(=O)NC4(C#N)CC4)cc2n3-c2nnc(C(F)F)s2)CC1
2. COCCN1CCN(c2ncnc3c2c2ccc(S(=O)(=O)NC4(C#N)CC4)cc2n3-c2nnc(C(F)F)s2)C[C@@H]1C
3. COCC(=O)N1CCC(c2ncnc3c2c2ccc(S(=O)(=O)NC4(C#N)CC4)cc2n3-c2nnc(C(F)F)s2)CC1
4. CC(C)C(=O)N1CC=C(c2ncnc3c2c2cc(F)c(S(=O)(=O)NC4(C#N)CC4)cc2n3-c2nnc(C(F)F)s2)CC1

< 100 nM
< 100 nM
< 100 nM
< 100 nM
